Origin of measurements: ChEMBL document CHEMBL4825668

Test details: Metabolic stability in human liver microsomes assessed as compound remaining at […] incubated for 30 mins by LC/MS/MS analysis
Format: ADME, Microsome
Settings: read-out: Stabilty
remaining at 0.5 h for assorted compounds
Give the value, in units of %, as a plain number.

Check out these entries, answers already filled in.
Looking up CS(=O)(=O)c1nc(Nc2ccc(F)c(Cl)c2)cc(NC2CCNCC2)n1 , I found its remaining at 0.5 h recorded as 92.9

Looking up CS(=O)(=O)c1nc(Nc2ccc(F)c(Cl)c2)cc(NC2CCC(N)CC2)n1 (stereo not given) , I found its remaining at 0.5 h recorded as 81.7

Looking up COc1ncccc1C(=O)NCCNc1cc(Nc2ccc(N3CCOCC3)cc2)nc([S+](C)[O-])n1 (stereo not given) , I found its remaining at 0.5 h recorded as 93.4

Looking up O=C1CC2(CCCC2)CC(=O)N1CCCCN1CCN(c2ncccn2)CC1 , I found its remaining at 0.5 h recorded as 2.44

Next:
Looking up CS(=O)(=O)c1nc(Nc2cc(F)c(F)c(F)c2)cc(N2CCNCC2)n1 , I found its remaining at 0.5 h recorded as 99.9

Looking up COc1ncccc1C(=O)NCCNc1cc(Nc2ccc(N3CCOCC3)cc2)nc(SC)n1 , I found its remaining at 0.5 h recorded as 58.8

Looking up CS(=O)(=O)c1nc(Nc2ccc(F)cc2)cc(Nc2ccc(F)cc2)n1 , I found its remaining at 0.5 h recorded as 42.8

Looking up CS(=O)(=O)c1nc(Nc2cc(F)c(F)c(F)c2)cc(Nc2cc(F)c(F)c(F)c2)n1 , I found its remaining at 0.5 h recorded as 99.9

Looking up CS(=O)(=O)c1nc(Nc2ccc(F)c(Cl)c2)cc(Nc2ccc(F)c(Cl)c2)n1 , I found its remaining at 0.5 h recorded as 99.9
